# run_description: Pharmacokinetic analysis of N-89 in mice after single po or iv administration
# Assay type: in vivo, ICR mice
# test_conditions: ICR, mouse, plasma, iv, 30 mg/kg

- compound: "C1CCCCCC2(CCCCC1)OOCCCOO2 [N-89, 1,2,6,7-tetraoxaspiro[7.11]nonadecane]"
  concentration at 0.25 h (ng/mL): 18300

====

# run_description: Pharmacokinetic analysis of N-89 in mice after single po or iv administration
# Format: in vivo, ICR mice
# test_conditions: ICR, mouse, plasma, iv, 30 mg/kg
observable: MRT (min)

- compound: "C1CCCCCC2(CCCCC1)OOCCCOO2 [N-89, 1,2,6,7-tetraoxaspiro[7.11]nonadecane]"
  measure_unit: "min"
  endpoint_value: 14.4
